- measured-on: T1, human GIP receptor (human, UniProt P48546 22-466)
- T1 sequence (looked up): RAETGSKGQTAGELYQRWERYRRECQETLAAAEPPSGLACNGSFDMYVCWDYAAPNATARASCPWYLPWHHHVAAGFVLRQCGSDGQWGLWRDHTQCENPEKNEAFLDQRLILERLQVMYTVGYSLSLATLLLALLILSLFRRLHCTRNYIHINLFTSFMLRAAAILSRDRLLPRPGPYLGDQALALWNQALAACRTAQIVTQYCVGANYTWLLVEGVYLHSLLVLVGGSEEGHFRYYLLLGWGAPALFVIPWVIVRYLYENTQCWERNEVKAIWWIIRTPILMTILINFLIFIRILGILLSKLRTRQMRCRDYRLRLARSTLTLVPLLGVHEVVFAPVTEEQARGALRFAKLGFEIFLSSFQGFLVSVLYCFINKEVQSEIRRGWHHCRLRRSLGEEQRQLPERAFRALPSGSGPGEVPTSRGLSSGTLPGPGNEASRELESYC
- assay-explanation: cell-based or functional assay
Bridge positions count the residues as written; N and C are the ends. Square brackets hold non-standard residues; d marks the D form. Ends that are not written are not given here. * marks the point of attachment. Acetyl(2-(4-imidazolyl)) = O=C(Cc1c[nH]cn1)*; Aib = CC(C)(N)C(=O)O
reported-endpoint: In vitro activity (%) compared with native peptide, vs GIP
All answers are understood in %, so give the number only.

H[Aib]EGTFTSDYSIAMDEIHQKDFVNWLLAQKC (bridge 16-20; not fully specified) [triple agonist of SEQ ID NO: 79] | 1.4
[Acetyl(2-(4-imidazolyl))][Aib]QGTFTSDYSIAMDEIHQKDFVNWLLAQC (bridge 16-20; not fully specified) [triple agonist of SEQ ID NO: 85] | 0.3
Y[Aib]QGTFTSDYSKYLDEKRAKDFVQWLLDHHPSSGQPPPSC (bridge 16-20; also: ring between positions 16 and 20, type not given here) [triple agonist of SEQ ID NO: 76] | 11.7

Suppose we examine the binder Y[Aib]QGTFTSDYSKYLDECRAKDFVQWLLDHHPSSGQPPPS (bridge 16-20) [triple agonist of SEQ ID NO: 66] ; what In vitro activity (%) compared with native peptide, vs GIP value has been reported?
17.2

Query: In vitro activity (%) compared with native peptide, vs GIP; subject: H[Aib]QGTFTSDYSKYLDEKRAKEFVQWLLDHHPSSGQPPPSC (bridge 16-20) [triple agonist of SEQ ID NO: 50]
2.7

Param item = H[Aib]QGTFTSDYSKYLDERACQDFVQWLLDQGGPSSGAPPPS (not fully specified) [triple agonist of SEQ ID NO: 27] ; retrieve measured In vitro activity (%) compared with native peptide, vs GIP.
0.9

Looking for the measured In vitro activity (%) compared with native peptide, vs GIP of [Acetyl(2-(4-imidazolyl))][Aib]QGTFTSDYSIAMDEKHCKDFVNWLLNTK (bridge 16-20; not fully specified) [triple agonist of SEQ ID NO: 60] , can you help?
8.2
